For each entry below, report its pIC50 value.
tested on: PMNL; assay: Inhibition of LTB4 biosynthesis in A-23187-stimulated bovine PMNL cells; format: functional, cell-based; details: Bos taurus
Numbers only, as −log10 of the molar value.

{"columns": ["compound", "pIC50"],
 "data": [
  ["CC(Cc1ccc(O)c(O)c1)C(C)Cc1ccc(O)c(O)c1 (centres undefined) [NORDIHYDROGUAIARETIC ACID]", 6.40]
]}

Please examine the following record next.
Supply recorded pIC50 for COc1cc(C)c(C(=O)Oc2cc(C)c(C(=O)O)c(O)c2C)c(OC)c1C here. 5.10

* * *

test: Prooxidant activity assessed as hydroxyl radical formation at 75 uM measured as malondialdehyde per mmol of deoxyribose by deoxyribose assay; assay type: functional
For each entry below, report its Activity value.
Answers are plain numbers, in µmol.

{"columns": ["compound", "unit annotation", "observed"],
 "data": [
  ["CC(Cc1ccc(O)c(O)c1)C(C)Cc1ccc(O)c(O)c1 (centres undefined) [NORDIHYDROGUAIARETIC ACID]", "µmol", 0.23]
]}

State recorded Activity for all listed compounds.
1. Cc1cc(OC(=O)c2c(C)cc(OC(=O)c3c(C)cc(O)cc3O)cc2O)cc(O)c1C(=O)O
2. C=C1C(=O)O[C@@H](CCCCCCCCCCCCC)[C@@H]1C(=O)O
3. COC(=O)c1c(C)cc(OC(=O)c2c(C)cc(O)c(C=O)c2O)c(C)c1O

1: 0.12; 2: 0.08; 3: 0
